Each entry below carries its recorded IC50.
experimentDescription: cytotoxicity assay on CHO cells (Stevigny et al.)
Assay type: cell-based, Chinese Hamster
experimentalParameters: Chinese Hamster Ovary (CHO) cells; Chinese Hamster Ovary cells; mean±SD of three experiments
Text: The Antitrypanosomal activity, toxicity test, and cytotoxicity assay were done according to Räz et al., Sleet and Brendel and Stevigny et al., respectively.
Note: unit µM is implicit; provide only the numeric part.

{"columns": ["compound", "metric", "measuredNumber"],
 "data": [
  ["CC1=C/C(=N\\NC(N)=S)C(C(C)C)CC1 (stereo not shown)", "IC50", 21.2],
  ["CC1=C/C(=N\\NC(=S)Nc2ccccc2)C(C(C)C)CC1 (stereo not shown)", "IC50", 65.3],
  ["CC1=C/C(=N\\NC(=O)Nc2ccccc2)C(C(C)C)CC1 (stereo not shown)", "IC50", 65.9]
]}

Query compound follows.
q: Give recorded IC50. CC1=C/C(=N\NC(N)=O)C(C(C)C)CC1 (stereo not shown)
a: 214

====

Tested on: Chinese Hamster Ovary (CHO) cells
experimentDescription: cytotoxicity assay on CHO cells (Stevigny et al.)
Format: cell-based
experimentalParameters: CHO cells
metric: Cytotoxicity CHO, Activity (verbal grade)

{"columns": ["molecule", "result"],
 "data": [
  ["CC1=C/C(=N\\NC(=O)Nc2ccccc2)C(C(C)C)CC1 (stereo not shown)", "Moderate"],
  ["CC1=C/C(=N\\NC(=S)Nc2ccccc2)C(C(C)C)CC1 (stereo not shown)", "Moderate"]
]}

====

System: Artemia salina (Leach) larvae
experimentDescription: toxicity test against Artemia salina Leach larvae (Sleet and Brendel)
Assay type: in vivo
experimentalParameters: larvae
metric: Toxicity against A. salina Leach, Activity (verbal grade)

{"columns": ["molecule", "testedOn", "result"],
 "data": [
  ["CC1=C/C(=N\\NC(=S)Nc2ccccc2)C(C(C)C)CC1 (stereo not shown)", "Artemia salina (Leach) larvae", "Toxic"],
  ["CC1=C/C(=N\\NC(=O)Nc2ccccc2)C(C(C)C)CC1 (stereo not shown)", "Artemia salina (Leach) larvae", "Not toxic"],
  ["CC1=C/C(=N\\NC(N)=O)C(C(C)C)CC1 (stereo not shown)", "Artemia salina (Leach) larvae", "Not toxic"],
  ["CC1=C/C(=N\\NC(N)=S)C(C(C)C)CC1 (stereo not shown)", "Artemia salina (Leach) larvae", "Not toxic"]
]}

====

experimentDescription: cytotoxicity assay on WI38 cells (Stevigny et al.)
Assay type: cell-based, human
experimentalParameters: WI38 non-cancer fibroblast cells; human normal fibroblast cells; mean±SD of three experiments
metric: pIC50
A value of pIC50 is the negative decimal logarithm of a concentration given in moles per litre.

Examples from the recorded data:
{"columns": ["compound", "metric", "measuredNumber"],
 "data": [
  ["CC1=C/C(=N\\NC(=S)Nc2ccccc2)C(C(C)C)CC1 (stereo not shown)", "pIC50", 3.87],
  ["CC1=C/C(=N\\NC(N)=S)C(C(C)C)CC1 (stereo not shown)", "pIC50", 3.84],
  ["CC1=C/C(=N\\NC(N)=O)C(C(C)C)CC1 (stereo not shown)", "pIC50", 3.32]
]}

q: Give recorded pIC50. CC1=C/C(=N\NC(=O)Nc2ccccc2)C(C(C)C)CC1 (stereo not shown)
a: 4.09

====

Each entry below carries its recorded LC50.
experimentDescription: toxicity test against Artemia salina Leach larvae (Sleet and Brendel)
Type: in vivo
experimentalParameters: Artemia salina Leach (larvae), in vivo; concentration providing 50% death of larvae; mean±SD of three experiments
Note: unit µM is implicit; provide only the numeric part.

Examples from the recorded data:
{"columns": ["molecule", "measuredNumber"],
 "data": [
  ["CC1=C/C(=N\\NC(N)=O)C(C(C)C)CC1 (stereo not shown)", 373],
  ["CC1=C/C(=N\\NC(=S)Nc2ccccc2)C(C(C)C)CC1 (stereo not shown)", 32.2],
  ["CC1=C/C(=N\\NC(=O)Nc2ccccc2)C(C(C)C)CC1 (stereo not shown)", 85.5]
]}

Query molecule follows.
q: Give recorded LC50. CC1=C/C(=N\NC(N)=S)C(C(C)C)CC1 (stereo not shown)
a: 86.7

Reference source for all entries: paper PMC5123075
